Test system: HL-60
Test: Toxicity against human HL-60 cells at 100 uM after 24 hrs by trypan blue exclusion assay
Type: cell-based
Conditions: hl-60, 24 h

Cpd smiles: O/C(=C(/O)c1ccccn1)c1ccccn1
Activity: Non-toxic
--
Cpd smiles: O=C(C(=O)c1ccccn1)c1ccccn1
Activity: Non-toxic
--
Cpd smiles: Cc1ccc(C(=O)C(=O)c2ccc(C)cn2)nc1
Activity: Non-toxic

====

System: HL-60
Assay: Toxicity against human HL-60 cells at 100 uM after 24 hrs by trypan blue exclusion assay
Format: cell-based
Details: hl-60, 24 h

Molecule: COc1cccc(C(=O)C(=O)c2cccc(OC)n2)n1
Activity: Non-toxic

Molecule: Cc1cc(C(C)(C)C)c(O)c(C(C)(C)C)c1 [BUTYLATED HYDROXYTOLUENE]
Activity: Toxic

Molecule: COc1cccc(/C(O)=C(\O)c2cccc(OC)n2)n1
Activity: Non-toxic

Molecule: Cc1cccc(/C(O)=C(\O)c2cccc(C)n2)n1
Activity: Non-toxic

Molecule: COc1ccc(C(=O)C(=O)c2ccc(OC)cn2)nc1
Activity: Non-toxic

Molecule: Cc1cccc(C(=O)C(=O)c2cccc(C)n2)n1
Activity: Non-toxic
